TARGET_OR_SYSTEM: Human RAR-related Orphan Receptor Gamma (RORγ) (Homo sapiens, UniProt P51449)
Sequence (P51449 269-508 limits assumed): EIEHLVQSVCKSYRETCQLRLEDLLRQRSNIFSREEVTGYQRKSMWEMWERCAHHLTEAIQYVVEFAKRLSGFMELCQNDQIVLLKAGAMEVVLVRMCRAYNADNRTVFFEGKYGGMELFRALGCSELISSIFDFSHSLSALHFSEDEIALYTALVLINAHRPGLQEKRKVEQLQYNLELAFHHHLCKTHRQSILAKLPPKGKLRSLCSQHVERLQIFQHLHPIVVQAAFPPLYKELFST
TEST_NAME: RORγ assay (GAL4-RORγ hybrid luciferase reporter, Indigo Biosciences)
CONDITION_LABEL: inverse-agonist activity, GAL4-RORγ reporter cells, 23 hours
READOUT_KIND: IC50 (nM)

Answered cases to consult:
{"COMPOUND": "C[C@H]1C(=O)C(C#N)=C[C@@]2(C)c3c(c(-c4ccncc4)nn3-c3ccc(-c4ccccc4)cc3)CC[C@H]12", "TARGET_OR_SYSTEM": "Human RAR-related Orphan Receptor Gamma (RORγ) (Homo sapiens, UniProt P51449)", "ENDPOINT_VALUE": 49}
{"COMPOUND": "C[C@H]1C(=O)C(C#N)=C[C@@]2(C)c3c(c(N(C)C4CCC4)nn3-c3ccc(-c4ccccc4)cc3)CC[C@H]12", "TARGET_OR_SYSTEM": "Human RAR-related Orphan Receptor Gamma (RORγ) (Homo sapiens, UniProt P51449)", "ENDPOINT_VALUE": 71}
{"COMPOUND": "C[C@H]1C(=O)C(C#N)=C[C@@]2(C)c3c(c(-c4ccccc4)nn3CC(F)(F)F)CC[C@H]12", "TARGET_OR_SYSTEM": "Human RAR-related Orphan Receptor Gamma (RORγ) (Homo sapiens, UniProt P51449)", "ENDPOINT_VALUE": 276}
{"COMPOUND": "C[C@H]1C(=O)C(C#N)=C[C@@]2(C)c3nc(-c4ccncc4)n(-c4ccccc4)c3CC[C@H]12", "TARGET_OR_SYSTEM": "Human RAR-related Orphan Receptor Gamma (RORγ) (Homo sapiens, UniProt P51449)", "ENDPOINT_VALUE": 264}

(P) C[C@H]1C(=O)C(C#N)=C[C@@]2(C)c3nn(-c4cccc(-c5ccccc5)c4)c(-c4ccncn4)c3CC[C@H]12
(Q) Cc1ccc(-c2nn(-c3ccc(-c4ccccc4)cc3)c3c2CC[C@@H]2[C@@H](C)C(=O)C(C#N)=C[C@@]32C)cc1
Problem: Lab notebook, comparison: P versus Q , higher IC50 goes to which? # reply format: chosen label
Result: P

(I) C[C@H]1C(=O)C(C#N)=C[C@@]2(C)c3c(c(-c4cccc(F)c4)nn3-c3ccnc4ccccc34)CC[C@H]12
(II) C[C@H]1C(=O)C(C#N)=C[C@@]2(C)c3c(c(-c4ccccc4)nn3-c3cccc(-c4cccnc4)c3)CC[C@H]12
(III) CC(C)c1ccc(-c2nc3c([nH]2)CC[C@@H]2[C@@H](C)C(=O)C(C#N)=C[C@@]32C)cc1
(IV) C[C@H]1C(=O)C(C#N)=C[C@@]2(C)c3c(c(-c4ccncn4)nn3-c3ccc(-c4cccc(F)c4)cn3)CC[C@H]12
Problem: Order the records by IC50, with each subsequent value no larger than the one before. Would you mind listing the labels in the order requested?
Result: III, I, IV, II
(III: 1970 nM, I: 208 nM, IV: 128 nM, II: 87 nM)

(I) C[C@H]1C(=O)C(C#N)=C[C@@]2(C)c3c(c(Nc4ccccc4)nn3-c3ccc(-c4ccccc4)cc3)CC[C@H]12
(II) C[C@H]1C(=O)C(C#N)=C[C@@]2(C)c3c(c(-c4cccnc4)nn3-c3ccc(-c4ccnc(CF)c4)cc3)CC[C@H]12
Problem: Lab notebook, comparison: I versus II , higher IC50 goes to which? # reply format: chosen label
Result: I

(I) CC(C)c1ccc(-c2nc3c(n2C)CC[C@@H]2[C@@H](C)C(=O)C(C#N)=C[C@@]32C)cc1
(II) C[C@H]1C(=O)C(C#N)=C[C@@]2(C)c3c(c(-c4ccncn4)nn3-c3ccc(-c4ccc(F)cc4)cn3)CC[C@H]12
Problem: // compare: I vs II , metric IC50, want the smaller # reply format: chosen label
Result: II
(II: 99 nM, I: 152 nM)
